Recorded measurements of IC50, one per entry
# assay_system: full-length human STEP46 (Homo sapiens, UniProt P54829)
# Sequence (P54829 173-541 isoform P54829-3 limits assumed): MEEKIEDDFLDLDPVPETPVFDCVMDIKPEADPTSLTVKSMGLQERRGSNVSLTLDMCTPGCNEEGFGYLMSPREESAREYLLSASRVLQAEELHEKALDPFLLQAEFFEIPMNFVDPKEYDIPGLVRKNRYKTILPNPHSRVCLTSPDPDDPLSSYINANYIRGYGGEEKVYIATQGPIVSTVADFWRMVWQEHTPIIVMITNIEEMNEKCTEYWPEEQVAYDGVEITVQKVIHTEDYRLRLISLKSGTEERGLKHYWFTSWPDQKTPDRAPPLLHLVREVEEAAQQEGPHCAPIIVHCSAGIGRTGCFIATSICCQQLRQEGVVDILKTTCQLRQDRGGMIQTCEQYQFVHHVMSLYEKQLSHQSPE
Just the number in µM, nothing appended.

Known IC50 results, listed for orientation:
| molecule | IC50 [µM] |
| --- | --- |
| N#Cc1sc2nc(-c3ccc4c(c3)OCO4)ccc2c1N [SBI-7297] | 32 |
| O=C(Cc1ccc(Cl)cc1)Nc1ccc(C(=O)Nc2cccc(O)c2)cc1 [SBI-6727] | 18 |

Asked: Please report the measured IC50 for O=C(CSc1c[nH]nn1)Nc1ccc(/C=C/c2ccccc2)cc1 [SBI-1359]
Given back: 7
